# testDescription: M. tuberculosis H37Rv growth inhibitors, H37Rv strain (AID 1626);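 note: bacteria incubated seven days before Alamar blue readout; 0% = bacteria only wells and 100% = bacteria with antibiotic wells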
# reportedConditions: active compounds read high, concentration not given here
Screen size: about 220,000 compounds; about 2,000 (0.91%) were called active. Not shown: some 2% with an inconclusive outcome. Only a sample is shown. Results with a measured potency or affinity are listed apart.
measuredEndpoint: inhibition (%)

>>> reported("CC12CCC(C(=O)Nc3ccc4c(c3)OCCO4)(OC1=O)C2(C)C (stereo unspecified)")
-12.4
>>> reported("COc1ccc(NCC(=O)Nc2ccc(Br)cc2F)c(OC)c1")
75.1
>>> reported("Cc1nn(-c2cccc([N+](=O)[O-])c2)c(N)c1-c1ccccc1")
7.18
>>> reported("Cn1c(NCc2ccco2)nc2c1c(=O)n(Cc1ccc(Cl)c(Cl)c1)c(=O)n2C")
6.79
>>> reported("C=CCn1c(SCC(=O)N2CCc3ccccc3C2)nc2ccccc2c1=O")
-0.56
>>> reported("Cc1ccccc1OCC(=O)Nc1ccc(N2CCN(S(C)(=O)=O)CC2)cc1")
-6.69
>>> reported("O=C(/C=C/c1cccc([N+](=O)[O-])c1)NCCSCc1ccc(Cl)cc1")
11.2
>>> reported("CCOc1ccc(OCCC(=O)Nc2ccc(F)cc2C)cc1")
-6.9
>>> reported("COc1ccc(Cl)cc1NC(=O)CNc1ccc(F)cc1C")
6.38
>>> reported("Cc1cc(C)n(-c2ncc3c(n2)N(CCO)CCOC3=O)n1")
10.4
>>> reported("COc1ccc(CNc2nc3c(c(=O)n(Cc4ccc(Br)cc4)c(=O)n3C)n2C)cc1")
34.1
